- system-under-test: 5-HT2B receptor (Homo sapiens, UniProt P41595)
- Sequence (P41595 whole entry): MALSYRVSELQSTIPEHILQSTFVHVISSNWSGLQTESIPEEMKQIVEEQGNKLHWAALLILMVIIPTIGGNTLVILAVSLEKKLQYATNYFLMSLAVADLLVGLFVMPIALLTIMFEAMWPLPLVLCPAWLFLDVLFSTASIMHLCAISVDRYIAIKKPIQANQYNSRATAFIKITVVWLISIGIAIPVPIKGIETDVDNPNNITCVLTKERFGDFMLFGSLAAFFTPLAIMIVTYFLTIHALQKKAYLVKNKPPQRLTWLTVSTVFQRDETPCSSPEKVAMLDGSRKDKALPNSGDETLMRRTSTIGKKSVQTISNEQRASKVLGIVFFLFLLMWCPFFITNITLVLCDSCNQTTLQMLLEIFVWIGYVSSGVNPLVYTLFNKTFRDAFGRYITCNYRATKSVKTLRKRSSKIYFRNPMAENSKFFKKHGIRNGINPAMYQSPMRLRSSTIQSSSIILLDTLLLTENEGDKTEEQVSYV
- assay-details: Primary screening: inhibition of radioligand binding at 5-HT2B (NIMH PDSP)
- test-settings: read-out: % Inhibition 5-HT2B
// NOT MET strictly below 50% in inhibition at 10 µM; MET otherwise

[
  {
    "compound": "O=c1cc(CCCc2ccccc2)oc2cccc(O)c12 [Compound 22h]",
    "cat": "MET"
  },
  {
    "compound": "O=c1cc(CCc2cccs2)oc2cccc(O)c12 [Compound 22e]",
    "cat": "MET"
  },
  {
    "compound": "O=c1cc(Cc2cccs2)oc2cccc(O)c12 [Compound 22r]",
    "cat": "NOT MET"
  },
  {
    "compound": "O=c1cc(CCCCc2ccccc2)oc2cccc(O)c12 [Compound 22i]",
    "cat": "NOT MET"
  },
  {
    "compound": "O=c1cc(Cc2ccccc2)oc2cccc(O)c12 [Compound 22g, 2-benzyl-5-hydroxy-4H-chromen-4-one]",
    "cat": "NOT MET"
  }
]

These data points were gathered from patent US9884836B2.
